Every entry's value here was drawn from patent US10005829B2.

ASSAY_TARGET: T1, APJ receptor (human, UniProt P35414 1-380)
T1 sequence (looked up): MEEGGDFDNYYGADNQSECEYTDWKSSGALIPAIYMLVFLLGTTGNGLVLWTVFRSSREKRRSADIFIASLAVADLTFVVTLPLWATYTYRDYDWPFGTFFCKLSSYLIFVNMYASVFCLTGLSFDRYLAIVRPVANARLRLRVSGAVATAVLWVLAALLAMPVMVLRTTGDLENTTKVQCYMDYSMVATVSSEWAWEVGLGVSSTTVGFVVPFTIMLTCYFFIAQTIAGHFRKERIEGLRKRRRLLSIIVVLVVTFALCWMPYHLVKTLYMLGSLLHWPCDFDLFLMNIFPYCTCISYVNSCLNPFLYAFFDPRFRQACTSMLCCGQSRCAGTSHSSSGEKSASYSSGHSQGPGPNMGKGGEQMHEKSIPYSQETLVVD
PROTOCOL_NOTES: cell-based or functional assay
[ ]: non-standard residue; d: D form. Cha = N[C@@H](CC1CCCCC1)C(=O)O; pGlu = O=C1CC[C@@H](C(=O)O)N1; dNle = CCCC[C@@H](N)C(=O)O; Nle = CCCC[C@H](N)C(=O)O; Aib = CC(C)(N)C(=O)O
For each of the binders below, state its hAPJ Ca^2+ Flux EC50.
Just the number in nM, nothing appended.

Complete the entry with hAPJ Ca^2+ Flux EC50 for [pGlu]RPRL[dA]HKGP[dNle][dE][dF]-OH (SMILES CCCC[C@@H](NC(=O)[C@@H]1CCCN1C(=O)CNC(=O)[C@H](CCCCN)NC(=O)[C@H](Cc1c[nH]cn1)NC(=O)[C@@H](C)NC(=O)[C@H](CC(C)C)NC(=O)[C@H](CCCNC(=N)N)NC(=O)[C@@H]1CCCN1C(=O)[C@H](CCCNC(=N)N)NC(=O)[C@@H]1CCC(=O)N1)C(=O)N[C@H](CCC(=O)O)C(=O)N[C@H](Cc1ccccc1)C(=O)O) [pE-R-P-R-L-a-H-K-G-P-nle-e-f-OH]
170

Complete the entry with hAPJ Ca^2+ Flux EC50 for [pGlu]RPRLS[Aib]KGP[Nle][dA]F-OH (SMILES CCCC[C@H](NC(=O)[C@@H]1CCCN1C(=O)CNC(=O)[C@H](CCCCN)NC(=O)C(C)(C)NC(=O)[C@H](CO)NC(=O)[C@H](CC(C)C)NC(=O)[C@H](CCCNC(=N)N)NC(=O)[C@@H]1CCCN1C(=O)[C@H](CCCNC(=N)N)NC(=O)[C@@H]1CCC(=O)N1)C(=O)N[C@H](C)C(=O)N[C@@H](Cc1ccccc1)C(=O)O) [pE-R-P-R-L-S-Aib-K-G-P-Nle-a-F-OH]
2.4

Complete the entry with hAPJ Ca^2+ Flux EC50 for ERPRLAHKGPLPF (pE at 1; D-Ala at 6; Nle (L-norleucine) at 11; D-Phe at 13) [pE-R-P-R-L-a-H-K-G-P-Nle-P-f-OH]
34.5

Complete the entry with hAPJ Ca^2+ Flux EC50 for [pGlu]RPRL[dA][dA]KGP[dNle][dA][dF]-OH (SMILES CCCC[C@@H](NC(=O)[C@@H]1CCCN1C(=O)CNC(=O)[C@H](CCCCN)NC(=O)[C@@H](C)NC(=O)[C@@H](C)NC(=O)[C@H](CC(C)C)NC(=O)[C@H](CCCNC(=N)N)NC(=O)[C@@H]1CCCN1C(=O)[C@H](CCCNC(=N)N)NC(=O)[C@@H]1CCC(=O)N1)C(=O)N[C@H](C)C(=O)N[C@H](Cc1ccccc1)C(=O)O) [pE-R-P-R-L-a-a-K-G-P-nle-a-f-OH]
16.1

Complete the entry with hAPJ Ca^2+ Flux EC50 for [pGlu]RPR[Cha][dA]HKGP[dNle][dA][dF]-OH (SMILES CCCC[C@@H](NC(=O)[C@@H]1CCCN1C(=O)CNC(=O)[C@H](CCCCN)NC(=O)[C@H](Cc1c[nH]cn1)NC(=O)[C@@H](C)NC(=O)[C@H](CC1CCCCC1)NC(=O)[C@H](CCCNC(=N)N)NC(=O)[C@@H]1CCCN1C(=O)[C@H](CCCNC(=N)N)NC(=O)[C@@H]1CCC(=O)N1)C(=O)N[C@H](C)C(=O)N[C@H](Cc1ccccc1)C(=O)O) [pE-R-P-R-Cha-a-H-K-G-P-nle-a-f-OH]
2.8
